# MEASUREMENT TARGET: SIRT2 (Homo sapiens, UniProt Q8IXJ6)
# Sequence (Q8IXJ6 whole entry): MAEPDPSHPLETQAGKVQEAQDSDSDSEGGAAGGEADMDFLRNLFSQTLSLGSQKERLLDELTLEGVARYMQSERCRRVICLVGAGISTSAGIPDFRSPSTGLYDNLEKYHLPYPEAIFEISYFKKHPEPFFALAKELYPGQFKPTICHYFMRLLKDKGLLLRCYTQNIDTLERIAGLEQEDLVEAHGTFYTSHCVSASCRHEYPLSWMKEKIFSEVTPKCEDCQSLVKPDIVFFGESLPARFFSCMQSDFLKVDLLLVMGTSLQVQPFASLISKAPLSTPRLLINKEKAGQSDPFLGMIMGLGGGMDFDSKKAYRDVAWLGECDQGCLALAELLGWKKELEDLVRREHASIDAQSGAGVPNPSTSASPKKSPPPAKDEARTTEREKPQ
# ASSAY: Continuous fluorogenic sirtuin inhibition assay, SIRT2 (tBuK peptides, TB)
# Assay type: biochemical
# CONDITION NOTES: inhibitor 4 µM; single trials
Starred links: 1 amine or outer side, 2 acyl side, 3 side chain; linkers in the order of their positions; H or OH if unused. Non-standard residues stand in square brackets, D forms with d. Residues, ends and D or L forms follow the SMILES beside them. X1 = CCCC(=S)NCCCC[C@H](N[*:1])C(=O)[*:2]; Abu = CC[C@H](N)C(=O)O
OBSERVATION TYPE: activity at 4 µM (%)
Please reply with the bare figure in % and do not write the unit itself.

q: # return recorded activity at 4 µM for input CCCC(=S)NCCCC[C@H](NC(=O)[C@@H](NC(=O)[C@@H](NC(=O)[C@@H](N)CC)[C@@H](C)O)C(C)C)C(=O)N[C@H](C(N)=O)[C@@H](C)CC [S2P04(Abu)-5-tBuK] (H-[Abu]TV[X1]I-NH2)
a: 3.95

Others:
q: Please report activity at 4 µM for the following compound: CCCC(=S)NCCCC[C@H](NC(=O)[C@@H](NC(=O)[C@@H](NC(=O)[C@H](CS)NC(=O)[C@@H](N)[C@@H](C)O)[C@@H](C)O)C(C)C)C(=O)N[C@H](C(=O)NCC(N)=O)[C@@H](C)CC [S2P04-tBuK] (H-TCTV[X1]IG-NH2)
a: 2.63

q: Specify reported activity at 4 µM for the compound shown: CCCC(=S)NCCCC[C@H](NC(=O)OCc1ccccc1)C(=O)Nc1ccccc1 [TB, reference compound]
a: 40.6

q: Give activity at 4 µM for the following compound: CCCC(=S)NCCCC[C@H](NC(=O)[C@@H](NC(=O)[C@@H](NC(=O)[C@H](CS)NC(C)=O)[C@@H](C)O)C(C)C)C(=O)N[C@H](C(N)=O)[C@@H](C)CC [Ac-S2P04-5-tBu] (Ac-CTV[X1]I-NH2)
a: 3.78
